- Study System: T1, USP38, Q8NB14
- T1 chain: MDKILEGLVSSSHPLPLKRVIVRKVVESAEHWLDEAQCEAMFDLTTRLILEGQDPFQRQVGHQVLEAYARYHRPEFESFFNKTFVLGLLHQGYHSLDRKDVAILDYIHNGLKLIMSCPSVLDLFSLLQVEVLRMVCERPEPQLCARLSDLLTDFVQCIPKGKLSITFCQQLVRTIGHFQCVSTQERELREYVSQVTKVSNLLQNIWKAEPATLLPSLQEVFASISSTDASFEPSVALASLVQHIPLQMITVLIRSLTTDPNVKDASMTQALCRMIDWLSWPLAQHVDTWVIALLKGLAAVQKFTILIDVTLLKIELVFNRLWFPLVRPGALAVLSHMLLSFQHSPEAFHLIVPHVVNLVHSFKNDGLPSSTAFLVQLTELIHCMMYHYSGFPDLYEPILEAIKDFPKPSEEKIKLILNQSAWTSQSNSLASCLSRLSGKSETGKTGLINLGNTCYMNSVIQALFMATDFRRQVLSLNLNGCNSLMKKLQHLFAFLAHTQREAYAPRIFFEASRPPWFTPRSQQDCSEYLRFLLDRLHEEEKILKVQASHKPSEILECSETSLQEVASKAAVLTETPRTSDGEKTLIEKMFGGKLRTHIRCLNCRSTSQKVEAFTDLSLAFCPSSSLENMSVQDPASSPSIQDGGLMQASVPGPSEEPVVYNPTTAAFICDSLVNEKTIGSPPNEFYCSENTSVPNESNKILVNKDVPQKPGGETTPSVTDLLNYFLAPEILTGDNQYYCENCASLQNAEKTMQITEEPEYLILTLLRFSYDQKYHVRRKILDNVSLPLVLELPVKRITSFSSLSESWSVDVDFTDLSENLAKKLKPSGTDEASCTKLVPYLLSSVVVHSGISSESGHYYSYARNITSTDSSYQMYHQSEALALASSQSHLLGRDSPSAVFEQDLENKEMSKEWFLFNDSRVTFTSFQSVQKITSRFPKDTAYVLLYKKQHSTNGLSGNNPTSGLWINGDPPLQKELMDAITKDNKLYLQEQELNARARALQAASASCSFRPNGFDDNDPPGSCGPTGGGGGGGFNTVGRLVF
- Procedure Text: median log2 fold change of GCK-ALFA target abundance (FLAG IP / Myc IP barcode read proportion) (log2 ratio); each designed protein is fused to an ALFA-tag nanobody in HEK293 cells to bring the named protein to FLAG-tagged glucokinase (GCK); Myc marks an untargeted standard; higher = target protein stabilised (more abundant)
- Conditions Used: target protein: 3xFLAG-MCP-GCK-ALFA reporter; HEK293 landing pad (RPLP)
Consider the following binders and their measured median log2 fold change readings.
The reply should be a number, written without any unit.

Worked examples, 10 binders total:
usp_38_diff_out_18_14_274 (protein) SEELSEALKSNLESLKKDVEKDTKRTIELLKKNKDDPERVKRIVERAERNLEGVITFAEEVLKEAEKRGDEEVKKAAEELIKKAKEALEKIKEEAKKVLA | 0.186
usp_38_diff_out_16_109_181 (protein) SAEEEAAREYAEAAVANFRALAADAEARLARLEARGASPEVLAAYRDLAATARAAAAALEAAIAAGEDLRAAADAQWDAVGAAAARAAEIRRAEVRRRSA | -0.515
usp_38_diff_out_3_124_518 (protein) SEAEELVAKAKELLEKLTKVLEEAEKALDKDLEKAEKLLKEADELLTELSAALLRLRDLAMADPSWRPALKEIEAKANEVIDKYTEVATKFFEKKAEAQE | -0.761
usp_38_diff_out_18_14_280 (protein) SEELSEALLSNLKSLKKDVEEYTKRVLRLLEKNKDDPERVKRIKERAERNLAGVKKYAEEVLKEAEEEGDEETLKAAKELKETAEKALAEIEKKVKEVLA | -0.87
usp_38_diff_out_13_133_50 (protein) SMEEEEKKEALKKFEELIKEAREAIEKAKKALEEGDLDKAWEYLGKAAGLLMEARELRTRELRDDPELYKEAKKKLEEVEKELNEVIDKVVEAEEKAFLA | 0.322
usp_38_diff_out_3_65_541 (protein) EIEKLLKEAKKYLEEAKKIIEELRERTRTDPTLTIEEVNEMLDKAADLLVKAGEYIEKAKKLNPDEKQKKEIEKLKKELEELLDEYVEAGEEAYLAVGER | -0.0269
usp_38_diff_out_3_136_524 (protein) ATAAAKAQIKALEATAKALKEDSLKLVKELLEDPNVTPEDLESLKKIVLSSFDDLIAEVKAIKAAHPEVAAEADKAIKAIEEYKKEVEKAFNEAIAKKKA | -0.221
usp_38_diff_out_4_99_575 (protein) EKEEMVERVKRLTEEVRRLLEEVEAARTLSPEERRALAERASAELDRLAEEMGKIYFEARDSGDKELIKAVTEAGDEFVDAYERAGLALAELRNEVDEES | -0.45
usp_38_diff_out_17_60_247 (protein) SAEAEEIIERLKKRLEELEKRLEELEKRFEEAKKKGDKEELEKLLKEAKELIDEIADLLVELAKNSELIDPETFLELADRASELADRAFKLKQEIEKELA | 0.108
usp_38_diff_out_2_61_512 (protein) SEELEEKAKKIKELIEEAKKLVEEIEKELDTADLAELEKKLKEAEEVINKAIDELEELYKKAVLLGDEEAIKKANELWDELGEVAARYNEVRRRLTERKL | 0.151

Form field median log2 fold change, entry usp_38_diff_out_18_28_409 (protein) AKEEIEKKIEEAEKELDELIDEYVKISTEAFLKYHEDPSSKELLEAVNELADELGKAAQAVNEMRKNRDDKEAVEKQLKVFEEHKKKAEELLKKIKELIK : -0.273

The value of median log2 fold change measured for the binder usp_38_diff_out_16_25_194 (protein) EVEALLKAHDEIGWAAGKLLEAKESKDPEEQKKLLEEALKHLEKALKILKEELKIDEETLKKIEELIKKAKKLLKEGAPFEEVIKTLEEAIDLAVDALNK turned out to be 0.00535

The binder listed as usp_38_diff_out_14_2_109 (protein) KEEELKKKKEETLKKLDEAIKKAKELKEEVKKDPSKKEEAFKELFEKHDEAADAVGELNKLILENKELRELNKEVTEEVNKKITEYTEAVLEALEEIAEA has a reported median log2 fold change of -0.1

Record summary for usp_38_diff_out_14_75_136 (protein) SEREELRARLAAARARLDALVAAGVISGRLEVELGAVLHVAALAIEAGDLETARRLLDIVEAALADPARAREILRAAEDFIVDAYKRLELRRIEEEEEER : reported median log2 fold change = 0.0109

median log2 fold change reading for usp_38_diff_out_13_133_58 (protein) SAAEERRKKALERLEEAEKKVEELLKKAEEALKEGKIEEASKYVGEAAGIIVKTRSDLMALTKDDPELRKEILKRLKELEKKLNELIDKVVEAEKKKFLA : 0.217

What the record says about usp_38_diff_out_18_14_316 (protein) SEEEEEALLSAVEILKADVERDTDRKIRLLEKAKDDPELVERIYERALRDLAGVEAYAKEVEKEAKKNGNEKLLKAAKELLKTVAAARERLEAAYKEVMA : median log2 fold change is 0.00386

// median log2 fold change lookup, binder = usp_38_diff_out_16_25_188 (protein) NVEALLEAHHHLGLAAGYIVLAKEHKDSEKAREYLEKAIEHLEEALRILEEELNIDEETAEEIRKLIEKAKKLLKEGAPVEEIIKLLEEAIDLMAKALAE , result: 0.00197
